assay: in vivo; details: both sexes, Jcl:Wister, rat, po
Reported Property: LD50

## Task Please look up its LD50: CCOc1nc2cccc(C(=O)OC(C)OC(=O)OC3CCCCC3)c2n1Cc1ccc(-c2ccccc2-c2nnn[nH]2)cc1 (racemic)
## Result ≥ 2000 mg/kg
